FYI, the data here is from patent US20190247399A1.

assay: oral TGR-1202 under fasted and fed conditions, pharmacokinetics; conditions: in vivo, 200 mg, Fed, single oral dose of 200 mg, read-out: AUC0-inf, Geometric LS Means
Measured Endpoint: AUC(0-inf) (ng·h/mL)
Give the value, in units of ng·h/mL, as a plain number.

Reported AUC(0-inf), molecule `CC(C)Oc1ccc(-c2nn([C@@H](C)c3oc4ccc(F)cc4c(=O)c3-c3cccc(F)c3)c3ncnc(N)c23)cc1F` : ____
14000

====

assay: micronized vs non-micronized TGR-1202 formulations, pharmacokinetics; conditions: in vivo, po, 200 mg, Micronized Formulation; single oral dose of 200 mg; read-out: AUC0-t, Geometric LS Means
Measured Endpoint: AUC(0-t)
Returns: string containing the numeric result and its unit.

Reported AUC(0-t), molecule `CC(C)Oc1ccc(-c2nn([C@@H](C)c3oc4ccc(F)cc4c(=O)c3-c3cccc(F)c3)c3ncnc(N)c23)cc1F` : ____
9440 ng·h/mL
